- target-under-test: T1, chimeric Hu-Leptin/Mu-EPO receptor (human; mouse, UniProt P48357 22-839; P14753 250-507)
- T1 sequence (looked up): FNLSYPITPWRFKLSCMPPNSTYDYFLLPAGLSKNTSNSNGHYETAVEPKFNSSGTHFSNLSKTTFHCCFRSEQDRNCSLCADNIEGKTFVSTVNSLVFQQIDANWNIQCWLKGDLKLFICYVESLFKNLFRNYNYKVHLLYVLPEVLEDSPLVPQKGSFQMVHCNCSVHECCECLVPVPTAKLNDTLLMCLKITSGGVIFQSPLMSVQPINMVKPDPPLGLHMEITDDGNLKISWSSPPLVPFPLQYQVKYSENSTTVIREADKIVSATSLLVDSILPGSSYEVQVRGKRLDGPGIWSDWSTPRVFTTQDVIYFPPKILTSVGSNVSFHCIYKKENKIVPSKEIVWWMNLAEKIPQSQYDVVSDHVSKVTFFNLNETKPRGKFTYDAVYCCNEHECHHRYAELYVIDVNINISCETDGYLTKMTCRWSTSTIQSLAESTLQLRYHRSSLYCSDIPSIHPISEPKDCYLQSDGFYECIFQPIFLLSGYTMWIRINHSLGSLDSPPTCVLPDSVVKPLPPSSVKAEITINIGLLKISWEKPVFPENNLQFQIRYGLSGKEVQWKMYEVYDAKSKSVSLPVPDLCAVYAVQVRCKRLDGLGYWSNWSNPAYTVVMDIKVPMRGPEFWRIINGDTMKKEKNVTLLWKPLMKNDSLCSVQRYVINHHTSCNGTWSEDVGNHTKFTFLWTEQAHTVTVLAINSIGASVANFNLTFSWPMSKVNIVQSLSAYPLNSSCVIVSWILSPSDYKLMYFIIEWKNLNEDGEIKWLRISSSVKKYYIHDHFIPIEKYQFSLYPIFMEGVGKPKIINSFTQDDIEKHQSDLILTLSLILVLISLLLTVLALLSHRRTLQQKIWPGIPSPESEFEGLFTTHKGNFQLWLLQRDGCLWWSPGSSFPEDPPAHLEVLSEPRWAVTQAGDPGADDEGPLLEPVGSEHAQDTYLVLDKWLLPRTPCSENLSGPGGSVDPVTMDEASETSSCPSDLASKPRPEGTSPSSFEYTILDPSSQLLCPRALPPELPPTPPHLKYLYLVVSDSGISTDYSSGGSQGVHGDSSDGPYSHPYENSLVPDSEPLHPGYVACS
- protocol-description: cell-based or functional assay
Entries and their EC50 nM (Obeca STAT5 assay)
Entry rule: numbers only, all in nM.

# count of solved cases: 4
{"columns": ["binder", "reading-unit", "EC50 nM (Obeca STAT5 assay)"],
 "data": [
  ["Cmpd 55 (other) MGSLAEAKVLANRELDKYGVSDFYKRLIDKAKTVEGVEALKDAILAALPTGGGGSGGGSGGGSGGGSASVPIQKVQDDTKTLIKTIVTRINDISHTQSVSSKQKVTGLEFIPGLHPILTLSKMDQTLAVYQQILTSMPSRNVIQISNDLENLRDLLHVLAFSKSCHLPQASGLETLESLGGVLEASGYSTEVVALSRLQGSLQDMLQQLDLSPGC", "nM", 0.639],
  ["Cmpd 48 (other) MGSLAEAKEAANRELDAYGVSDFYKRLIDKAKTVEGVEALKDAILAALPTGGGGSGGGSGGGSGGGSASVPIQKVQDDTKTLIKTIVTRINDISHTQSVSSKQKVTGLEFIPGLHPILTLSKMDQTLAVYQQILTSMPSRNVIQISNDLENLRDLLHVLAFSKSCHLPQASGLETLESLGGVLEASGYSTEVVALSRLQGSLQDMLQQLDLSPGC", "nM", 0.553],
  ["Cmpd 41 (other) MGSLAQAKEAANRELDSYGVSDFYKRLIDKAKTVEGVEALKDAILAALPTGGGGSGGGSGGGSGGGSASVPIQKVQDDTKTLIKTIVTRINDISHTQSVSSKQKVTGLEFIPGLHPILTLSKMDQTLAVYQQILTSMPSRNVIQISNDLENLRDLLHVLAFSKSCHLPQASGLETLESLGGVLEASGYSTEVVALSRLQGSLQDMLQQLDLSPGC", "nM", 0.506],
  ["Cmpd 69 (other) MGSLAEAKVLANRELDKYGVSDFYKRLIEKAKTVEGVEALKEAILAALPTGGEGGEGGEGGEGGEGGEASVPIQKVQDDTKTLIKTIVTRINDISHTQSVSSKQKVTGLEFIPGLHPILTLSKMDQTLAVYQQILTSMPSRNVIQISNDLENLRDLLHVLAFSKSCHLPQASGLETLESLGGVLEASGYSTEVVALSRLQGSLQDMLQQLDLSPGC", "nM", 0.832]
]}

-- ask In one line, give reported EC50 nM (Obeca STAT5 assay) of the entry Cmpd 9 (other) MGSLAEAKEAANAELDSYGVSDFYKRLIDKAKTVEGVEALKDAILAALPTGGGGSGGGSGGGSGGGSASPIQRVQDDTKTLIKTIITRINDISPPQGVSSRPRVAGLDFIPRVQSVRTLSGMDQILATYQQILTSLQSRNVIQISNDLENLRDLLHVLAFSKSCPVPRARGSDTIKGLGNVLRASVHSTEVVALSRLKAALQDMLRQLDRNPGC .
-- reply 0.433
